# Tested on: P. aeruginosa (PA)
# procedure.summary: MIC by microdilution, 36 clinical and laboratory strains with known efflux phenotype
# Assay type: cell-based
# condition.context: strain 401, ompH−, MHB
experimental.endpoint: MIC (µg/mL)
Report as a plain number; the unit µg/mL is understood.

Exam item: Supply recorded MIC for CC[C@H]1OC(=O)[C@H](C)[C@@H](O[C@H]2C[C@@](C)(OC)[C@@H](O)[C@H](C)O2)[C@H](C)[C@@H](O[C@@H]2O[C@H](C)C[C@H](N(C)C)[C@H]2O)[C@](C)(OC)C[C@@H](C)C(=O)[C@H](C)[C@@H](O)[C@]1(C)O here.
Marked response: 8

Exam item: Let me know recorded MIC for CC[C@H]1OC(=O)[C@H](C)[C@@H](O[C@H]2C[C@@](C)(OC)[C@@H](O)[C@H](C)O2)[C@H](C)[C@@H](O[C@@H]2O[C@H](C)C[C@H](N(C)C)[C@H]2O)[C@](C)(O)C[C@@H](C)CN(C)[C@H](C)[C@@H](O)[C@]1(C)O , thanks.
Marked response: 8

====

I'd appreciate it if you could supply MIC values for the items below.
# Test system: P. aeruginosa PAO1
# procedure.summary: MIC by microdilution with PaβN or EGTA, wild-type strain
# Type: cell-based
# condition.context: Pseudomonas aeruginosa, PAO1, PAO1, RPMI, EGTA 5 mM; read-out: MIC
Reply with the number and its unit after it.

Exam item: # return MIC of CC[C@H]1OC(=O)[C@H](C)[C@@H](O[C@H]2C[C@@](C)(OC)[C@@H](O)[C@H](C)O2)[C@H](C)[C@@H](O[C@@H]2O[C@H](C)C[C@H](N(C)C)[C@H]2O)[C@](C)(O)C[C@@H](C)C(=O)[C@H](C)[C@@H](O)[C@]1(C)O [ERY, erythromycin] (system: P. aeruginosa PAO1)
Marked response: 32 µg/mL

Exam item: Write down measured MIC (P. aeruginosa PAO1) for this compound. CC[C@H]1OC(=O)[C@H](C)C(=O)[C@H](C)[C@@H](O[C@@H]2O[C@H](C)C[C@H](N(C)C)[C@H]2O)[C@](C)(OC)C[C@@H](C)C(=O)[C@H](C)[C@H]2N(CCCCn3cnc(-c4cccnc4)c3)C(=O)O[C@]12C [TEL, telithromycin]
Marked response: 1 µg/mL

Exam item: # lookup: P. aeruginosa PAO1 MIC, key = CC[C@H]1OC(=O)[C@H](C)[C@@H](O[C@H]2C[C@@](C)(OC)[C@@H](O)[C@H](C)O2)[C@H](C)[C@@H](O[C@@H]2O[C@H](C)C[C@H](N(C)C)[C@H]2O)[C@](C)(OC)C[C@@H](C)C(=O)[C@H](C)[C@@H](O)[C@]1(C)O [CLR, clarithromycin]
Marked response: 32 µg/mL

Exam item: Give MIC; test system P. aeruginosa PAO1; compound CC[C@H]1OC(=O)[C@H](C)[C@@H](O[C@H]2C[C@@](C)(OC)[C@@H](O)[C@H](C)O2)[C@H](C)[C@@H](O[C@@H]2O[C@H](C)C[C@H](N(C)C)[C@H]2O)[C@](C)(O)C[C@@H](C)CN(C)[C@H](C)[C@@H](O)[C@]1(C)O [AZM, azithromycin]
Marked response: 0.25 µg/mL

====

For each of the compounds below, state its MIC.
# Test system: P. aeruginosa (PA)
# procedure.summary: MIC by microdilution, 36 clinical and laboratory strains with known efflux phenotype
# Assay type: cell-based
# condition.context: strain PAO1, REFERENCE, RPMI
Number in µg/mL, nothing else.

Exam item: Please report MIC for the following compound: CC[C@H]1OC(=O)[C@H](C)C(=O)[C@H](C)[C@@H](O[C@@H]2O[C@H](C)C[C@H](N(C)C)[C@H]2O)[C@](C)(OC)C[C@@H](C)C(=O)[C@H](C)[C@H]2N(CCCCn3cnc(-c4cccnc4)c3)C(=O)O[C@]12C
Marked response: 2

Exam item: Return MIC for the following compound: CC[C@H]1OC(=O)[C@H](C)[C@@H](O[C@H]2C[C@@](C)(OC)[C@@H](O)[C@H](C)O2)[C@H](C)[C@@H](O[C@@H]2O[C@H](C)C[C@H](N(C)C)[C@H]2O)[C@](C)(O)C[C@@H](C)C(=O)[C@H](C)[C@@H](O)[C@]1(C)O
Marked response: 32

Exam item: Output MIC of CC[C@H]1OC(=O)[C@H](C)[C@@H](O[C@H]2C[C@@](C)(OC)[C@@H](O)[C@H](C)O2)[C@H](C)[C@@H](O[C@@H]2O[C@H](C)C[C@H](N(C)C)[C@H]2O)[C@](C)(OC)C[C@@H](C)C(=O)[C@H](C)[C@@H](O)[C@]1(C)O
Marked response: 32

Exam item: Give the measured MIC for CC[C@H]1OC(=O)[C@@](C)(F)C(=O)[C@H](C)[C@@H](O[C@@H]2O[C@H](C)C[C@H](N(C)C)[C@H]2O)[C@](C)(OC)C[C@@H](C)C(=O)[C@H](C)[C@H]2N(CCCCn3cc(-c4cccc(N)c4)nn3)C(=O)O[C@]12C
Marked response: 4

Exam item: For the compound CC[C@H]1OC(=O)[C@H](C)[C@@H](O[C@H]2C[C@@](C)(OC)[C@@H](O)[C@H](C)O2)[C@H](C)[C@@H](O[C@@H]2O[C@H](C)C[C@H](N(C)C)[C@H]2O)[C@](C)(O)C[C@@H](C)CN(C)[C@H](C)[C@@H](O)[C@]1(C)O , report MIC.
Marked response: 4

====

# System: P. aeruginosa (PA)
# procedure.summary: MIC by microdilution, 36 clinical and laboratory strains with known efflux phenotype
# Assay type: cell-based
# condition.context: strain 2, efflux CD+, MHB
experimental.endpoint: MIC
Express your answer as a number followed by its unit.

Exam item: Report MIC for CC[C@H]1OC(=O)[C@H](C)[C@@H](O[C@H]2C[C@@](C)(OC)[C@@H](O)[C@H](C)O2)[C@H](C)[C@@H](O[C@@H]2O[C@H](C)C[C@H](N(C)C)[C@H]2O)[C@](C)(OC)C[C@@H](C)C(=O)[C@H](C)[C@@H](O)[C@]1(C)O [CLR, clarithromycin]
Marked response: 512 µg/mL

Exam item: Respond only with MIC recorded for CC[C@H]1OC(=O)[C@H](C)[C@@H](O[C@H]2C[C@@](C)(OC)[C@@H](O)[C@H](C)O2)[C@H](C)[C@@H](O[C@@H]2O[C@H](C)C[C@H](N(C)C)[C@H]2O)[C@](C)(O)C[C@@H](C)CN(C)[C@H](C)[C@@H](O)[C@]1(C)O [AZM, azithromycin]
Marked response: 512 µg/mL

Exam item: Identify MIC associated with the compound CC[C@H]1OC(=O)[C@H](C)[C@@H](O[C@H]2C[C@@](C)(OC)[C@@H](O)[C@H](C)O2)[C@H](C)[C@@H](O[C@@H]2O[C@H](C)C[C@H](N(C)C)[C@H]2O)[C@](C)(O)C[C@@H](C)C(=O)[C@H](C)[C@@H](O)[C@]1(C)O [ERY, erythromycin]
Marked response: 512 µg/mL

Exam item: // Input: CC[C@H]1OC(=O)[C@@](C)(F)C(=O)[C@H](C)[C@@H](O[C@@H]2O[C@H](C)C[C@H](N(C)C)[C@H]2O)[C@](C)(OC)C[C@@H](C)C(=O)[C@H](C)[C@H]2N(CCCCn3cc(-c4cccc(N)c4)nn3)C(=O)O[C@]12C [CEM-101, solithromycin] . Output its MIC only.
Marked response: 256 µg/mL

Exam item: Note down MIC recorded for CC[C@H]1OC(=O)[C@H](C)C(=O)[C@H](C)[C@@H](O[C@@H]2O[C@H](C)C[C@H](N(C)C)[C@H]2O)[C@](C)(OC)C[C@@H](C)C(=O)[C@H](C)[C@H]2N(CCCCn3cnc(-c4cccnc4)c3)C(=O)O[C@]12C [TEL, telithromycin]
Marked response: 256 µg/mL
